Target: human A2b receptor subtype (Homo sapiens, UniProt P29275)
Construct: purchased Receptor Biology (Beltsville, Md.) RB-HA2b; host or cells: HEK-293, stably expressing
Sequence (P29275 1-332): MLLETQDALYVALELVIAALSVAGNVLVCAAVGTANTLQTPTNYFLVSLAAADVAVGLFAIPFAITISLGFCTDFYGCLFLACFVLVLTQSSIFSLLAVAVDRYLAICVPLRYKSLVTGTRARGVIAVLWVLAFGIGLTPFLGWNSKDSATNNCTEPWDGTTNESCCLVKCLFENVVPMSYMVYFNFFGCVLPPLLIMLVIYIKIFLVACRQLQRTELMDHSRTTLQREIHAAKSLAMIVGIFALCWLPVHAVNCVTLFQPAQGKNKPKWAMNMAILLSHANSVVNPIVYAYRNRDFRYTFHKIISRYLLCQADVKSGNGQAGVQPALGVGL
Experiment: Adenosine 2b receptor subtype competition radioligand binding, [3H]DPCPX, HEK293 membranes
Settings: Table 6; read-out: Ki − A2B
pKi listing for selected compounds.
Answer as the number alone; pKi is minus log10 of concentration in mol/L.

# structure, assayedSystem, measuredMetric, resultValue
records = [
    ("NC(=O)[C@H]1CCCN1c1nc(-c2ccccc2)nc2[nH]cnc12", "human A2b receptor subtype (Homo sapiens, UniProt P29275)", "pKi", 6.77),
    ("CC(=O)NCCNc1nc(-c2ccccc2)nc2[nH]ncc12", "human A2b receptor subtype (Homo sapiens, UniProt P29275)", "pKi", 7.49),
    ("NC(=O)[C@@H]1CCCN1c1nc(-c2ccccc2)nc2[nH]nnc12", "human A2b receptor subtype (Homo sapiens, UniProt P29275)", "pKi", 5.25),
]

[ask] Please give the measured pKi for this compound: O[C@H]1CC[C@H](Nc2nc(-c3ccccc3)nc3[nH]nnc23)CC1
[reply] 5.38

[ask] Please give the measured pKi for this compound: O[C@H]1CC[C@H](Nc2nc(-c3ccccc3)nc3[nH]cnc23)CC1
[reply] 7.16

[ask] Please give the measured pKi for this compound: O[C@H]1CC[C@H](Nc2nc(-c3ccccc3)nc3[nH]ncc23)CC1
[reply] 5.84

[ask] Please give the measured pKi for this compound: NC(=O)[C@@H]1CCCN1c1nc(-c2ccccc2)nc2[nH]ncc12
[reply] 7.01

[ask] Please give the measured pKi for this compound: NC(=O)[C@H]1CCCN1c1nc(-c2ccccc2)nc2[nH]ncc12
[reply] 5.83

[ask] Please give the measured pKi for this compound: NC(=O)[C@@H]1CCCN1c1nc(-c2ccccc2)nc2[nH]cnc12
[reply] 7.20

[ask] Please give the measured pKi for this compound: CC(=O)NCCNc1nc(-c2ccccc2)nc2[nH]cnc12
[reply] 7.66

* * *

molecular target: human A2a receptor subtype (Homo sapiens, UniProt P29274); construct: purchased Receptor Biology (Beltsville, Md.) RB-HA2a; host or cells: HEK-293, stably expressing; assay: Adenosine 2a receptor subtype competition radioligand binding, [3H]CGS-21680, HEK293 membranes; details: Table 6; read-out: Ki − A2A
Sequence (P29274 whole entry): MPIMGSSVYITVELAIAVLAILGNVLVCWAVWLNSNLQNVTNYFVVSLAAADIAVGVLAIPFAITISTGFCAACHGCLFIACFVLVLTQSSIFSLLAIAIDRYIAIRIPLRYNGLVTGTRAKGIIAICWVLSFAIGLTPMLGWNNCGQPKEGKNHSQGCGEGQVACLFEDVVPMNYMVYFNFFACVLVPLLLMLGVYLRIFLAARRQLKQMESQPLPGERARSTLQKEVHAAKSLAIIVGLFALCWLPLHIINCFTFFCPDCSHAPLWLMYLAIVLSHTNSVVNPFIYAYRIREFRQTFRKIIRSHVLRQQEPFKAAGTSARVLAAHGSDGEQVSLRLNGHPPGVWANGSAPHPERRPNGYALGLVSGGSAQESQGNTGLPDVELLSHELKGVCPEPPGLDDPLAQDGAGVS
Would you mind sorting the entries by Ki according to these classes? bottom bin (below 50 nM), middle bin (50 nM to below 200 nM), top bin (200 nM or more)

Solved entries:
# structure, classification
rows = [
    ("O[C@H]1CC[C@H](Nc2nc(-c3ccccc3)nc3[nH]nnc23)CC1", "top bin"),
    ("O[C@H]1CC[C@H](Nc2nc(-c3ccccc3)nc3[nH]cnc23)CC1", "middle bin"),
    ("CC(=O)NCCNc1nc(-c2ccccc2)nc2[nH]cnc12", "bottom bin"),
]

[ask] The entry to classify is NC(=O)[C@@H]1CCCN1c1nc(-c2ccccc2)nc2[nH]cnc12 ; which class holds it?
[reply] bottom bin

[ask] The entry to classify is NC(=O)[C@@H]1CCCN1c1nc(-c2ccccc2)nc2[nH]ncc12 ; which class holds it?
[reply] middle bin

[ask] The entry to classify is O[C@H]1CC[C@H](Nc2nc(-c3ccccc3)nc3[nH]ncc23)CC1 ; which class holds it?
[reply] top bin

[ask] The entry to classify is NC(=O)[C@@H]1CCCN1c1nc(-c2ccccc2)nc2[nH]nnc12 ; which class holds it?
[reply] top bin

[ask] The entry to classify is NC(=O)[C@H]1CCCN1c1nc(-c2ccccc2)nc2[nH]ncc12 ; which class holds it?
[reply] top bin

[ask] The entry to classify is NC(=O)[C@H]1CCCN1c1nc(-c2ccccc2)nc2[nH]cnc12 ; which class holds it?
[reply] bottom bin
